# Test system: HCT-116
# Method notes: NCI tumour cell line growth inhibition, 48 h
The source made the active and inactive calls. Rule as the data show it: active = GI50 up to about 1.1 µM and inactive = higher.
Observation type: GI50

Worked examples, 2 compounds total:
Compound: COc1cc(C2c3cc4c(cc3OC(NN=C(C)C)C2C)OCO4)cc(OC)c1O (stereo not drawn)
GI50: 24.9 µM (inactive)
--
Compound: OC1OC(c2ccco2)C(F)(F)C(F)(F)C1(F)F (stereo not drawn)
GI50: > 100 µM (inactive)

Next, consider the following compound.
response.value for `COc1nc(C#CC2(O)CCCCC2)nc(OC)n1` (field: GI50) = 9.4 µM (inactive)

====

# Tested on: SK-MEL-2
# Method notes: NCI tumour cell line growth inhibition, 48 h
The source made the active and inactive calls. Rule as the data show it: active = GI50 up to about 1.1 µM and inactive = higher. Bridge positions count the residues as written; N and C are the ends. Square brackets hold non-standard residues; d marks the D form. Peptide text beside a SMILES is read from it. * marks the point of attachment. Cya = N[CH](CS(=O)(=O)O)C(=O)O; X49 = CC(C)CCCCCCCC(O)CC(=O)*; GABA = NCCCC(=O)O
Observation type: GI50

Worked examples, 5 compounds total:
Compound: O=C1c2ccccc2C(=O)N1CC(CN1C(=O)c2ccccc2C1=O)(C(=O)OCc1ccccc1)C(=O)OCc1ccccc1
GI50: > 100 µM (inactive)
--
Compound: CC(C)CCCCCCCC(O)CC(=O)NC(CS(=O)(=O)O)C(=O)NC(CC(C)C)C(=O)NCCCC(=O)NC(Cc1c[nH]cn1)C(=O)NC(C)C(=O)NC1C(=O)NC(C(C)O)C(=O)NC(Cc2c[nH]cn2)C(=O)NC(C)C(=O)NC(C(C)O)C(=O)OC1C (centres undefined) (X49-[Cya]L[GABA]HATTHAT; ester 6-C; configuration not given here)
GI50: > 25 µM (inactive)
--
Compound: C=CCN1C(=O)/C(=C/c2cccs2)N=C1SC1OC(COC(=O)c2ccccc2)C(OC(=O)c2ccccc2)C1OC(=O)c1ccccc1 (centres undefined)
GI50: > 100 µM (inactive)
--
Compound: CCN1/C(=C/C#C/C(C)=C\c2sc3ccccc3[n+]2CC)Sc2ccccc21
GI50: 2.44 µM (inactive)
--
Compound: CC1(C)OCN(c2ccc(Cl)cc2)Cn2c1nc1ccccc12
GI50: > 54 µM (inactive)

State recorded GI50 for all listed compounds.
1. CSc1ccc(NC(=O)C2CCCCC2C(=O)O)cc1 (centres undefined)
2. C/C=C1/C=CC2c3[nH]c4ccccc4c3CCN2C1 (centres undefined)
3. N=C1N(/N=C/c2ccccn2)/C(=N\c2ccccc2)C(=S)N1c1ccccc1
4. CCOc1cc2c(C(=O)CC)c(O)ccc2o1
5. CCCCC1C(=O)N(c2ccc(S(=O)(=O)Nc3ccccn3)cc2)N(c2ccc(O)c(C(=O)O)c2)C1=O (centres undefined)
6. COCCCCCC(=O)CP(=O)(OC)OC
7. CC(C)CCNC(=O)c1ccc(CNC(=O)/C=C/c2ccc3ccccc3c2)cc1
8. CCCC(C(=O)OC)C1N/C(=N/C#N)N(Cc2ccccc2)C1=O (centres undefined)

> 100 µM (inactive)
> 400 µM (inactive)
2.14 µM (inactive)
> 100 µM (inactive)
> 100 µM (inactive)
> 100 µM (inactive)
> 100 µM (inactive)
> 100 µM (inactive)

====

# Test system: DMS-114
# Method notes: NCI tumour cell line growth inhibition, 48 h
Calls of active or inactive are those of the source. Cut-off read from the data, not from the text of the source: active = GI50 up to about 1.1 µM and inactive = higher.
Observation type: GI50

Worked examples, 3 molecules total:
Molecule: N#CC12Cc3cc4c(cc3-c3cccc(c31)CCN2C(=O)c1ccccc1)OCO4 (stereo unspecified)
Val: 83 µM (inactive)

Molecule: O=c1c(Cc2ccccc2)c(O)cc2n1CCC2
Val: > 100 µM (inactive)

Molecule: COc1ccc(C2NC(c3ccc(OC)cc3)C(C)C(=O)C2C)cc1 (stereo unspecified)
Val: 64.4 µM (inactive)

State recorded GI50 for all listed molecules.
1. CC(C)C(=O)CC(c1ccc(Br)cc1)N1N=C(C(C)C)CC1c1ccc(Br)cc1 (stereo unspecified)
2. CCCCCCCCCCCCCS(=O)(=O)NCC(N)=O
3. CCOc1cc2c(C(=O)CC)c(O)ccc2o1
4. COc1ccc(C2CCc3cc4c(cc3/C2=N/OC(C)=O)OCO4)cc1OC (stereo unspecified)
5. COc1cc(CC(=O)c2ccc3c(c2)OCO3)cc(OC)c1OC
6. CCCC(C(=O)OC)C1N/C(=N/C#N)N(Cc2ccccc2)C1=O (stereo unspecified)
7. CNC(=O)SCC(NC(=O)CCC(N)C(=O)O)C(=O)NCC(=O)O (stereo unspecified)
8. N#CC(C#N)=Cc1ccc(CP(=O)(O)O)cc1

27.9 µM (inactive)
> 100 µM (inactive)
> 54.5 µM (inactive)
10.7 µM (inactive)
27.9 µM (inactive)
> 100 µM (inactive)
39 µM (inactive)
> 100 µM (inactive)
